Biological target: Factor X, P00742
Sequence (P00742 whole entry, looked up): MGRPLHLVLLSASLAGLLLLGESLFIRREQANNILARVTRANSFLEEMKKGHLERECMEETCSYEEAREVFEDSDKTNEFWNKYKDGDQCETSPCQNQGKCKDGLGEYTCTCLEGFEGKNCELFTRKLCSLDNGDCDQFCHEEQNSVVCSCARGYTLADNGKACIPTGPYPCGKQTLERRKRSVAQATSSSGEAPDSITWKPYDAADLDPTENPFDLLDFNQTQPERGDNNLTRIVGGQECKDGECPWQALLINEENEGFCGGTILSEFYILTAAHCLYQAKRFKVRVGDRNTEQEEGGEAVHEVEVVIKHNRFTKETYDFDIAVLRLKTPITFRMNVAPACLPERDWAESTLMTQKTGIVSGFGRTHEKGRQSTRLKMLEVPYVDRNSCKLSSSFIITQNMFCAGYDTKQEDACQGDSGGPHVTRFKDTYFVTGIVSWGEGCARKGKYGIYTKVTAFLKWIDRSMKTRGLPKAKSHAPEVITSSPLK
assayEndpoint: KM (FX activation by FIXa in Xase complex with FVIIIa, PC/PS vesicles, Ca2+) (µM)

protein	unitsText	dataValue
FIXa R318Y/R338E/R403E/E410N/T412V (protein) chain 1: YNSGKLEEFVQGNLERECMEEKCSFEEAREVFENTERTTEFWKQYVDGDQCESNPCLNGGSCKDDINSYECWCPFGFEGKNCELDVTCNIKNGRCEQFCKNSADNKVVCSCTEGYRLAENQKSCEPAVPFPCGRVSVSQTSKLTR chain 2: VVGGEDAKPGQFPWQVVLNGKVDAFCGGSIVNEKWIVTAAHCVETGVKITVVAGEHNIEETEHTEQKRNVIRIIPHHNYNAAINKYNHDIALLELDEPLVLNSYVTPICIADKEYTNIFLKFGSGYVSGWGRVFHKGYSALVLQYLRVPLVDRATCLESTKFTIYNNMFCAGFHEGGRDSCQGDSGGPHVTEVEGTSFLTGIISWGEECAMKGKYGIYTKVSEYVNWIKNKVKLT	µM	0.0483
FIXa R318Y/R338E/N346Y/R403E/E410N (protein) chain 1: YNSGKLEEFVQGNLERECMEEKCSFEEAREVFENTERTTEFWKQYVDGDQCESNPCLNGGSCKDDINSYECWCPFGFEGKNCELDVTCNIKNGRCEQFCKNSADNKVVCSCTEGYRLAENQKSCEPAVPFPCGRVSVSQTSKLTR chain 2: VVGGEDAKPGQFPWQVVLNGKVDAFCGGSIVNEKWIVTAAHCVETGVKITVVAGEHNIEETEHTEQKRNVIRIIPHHNYNAAINKYNHDIALLELDEPLVLNSYVTPICIADKEYTNIFLKFGSGYVSGWGRVFHKGYSALVLQYLRVPLVDRATCLESTKFTIYYNMFCAGFHEGGRDSCQGDSGGPHVTEVEGTSFLTGIISWGEECAMKGKYGIYTKVSEYVNWIKNKTKLT	µM	0.0281
FIXa R318Y/R338E/T343R/R403E (protein) chain 1: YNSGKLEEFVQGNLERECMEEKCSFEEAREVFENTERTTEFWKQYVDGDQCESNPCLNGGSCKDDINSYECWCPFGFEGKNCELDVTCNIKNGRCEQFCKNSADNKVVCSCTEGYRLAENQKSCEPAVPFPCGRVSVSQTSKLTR chain 2: VVGGEDAKPGQFPWQVVLNGKVDAFCGGSIVNEKWIVTAAHCVETGVKITVVAGEHNIEETEHTEQKRNVIRIIPHHNYNAAINKYNHDIALLELDEPLVLNSYVTPICIADKEYTNIFLKFGSGYVSGWGRVFHKGYSALVLQYLRVPLVDRATCLESTKFRIYNNMFCAGFHEGGRDSCQGDSGGPHVTEVEGTSFLTGIISWGEECAMKGKYGIYTKVSEYVNWIKEKTKLT	µM	0.0443
FIXa Y155F/K247N/N249S/R318Y/R338E/R403E (protein) chain 1: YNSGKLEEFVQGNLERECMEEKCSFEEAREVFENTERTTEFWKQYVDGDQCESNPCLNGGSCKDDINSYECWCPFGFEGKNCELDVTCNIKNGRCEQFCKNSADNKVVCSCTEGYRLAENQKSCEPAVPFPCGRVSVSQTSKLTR chain 2: VVGGEDAKPGQFPWQVVLNGKVDAFCGGSIVNEKWIVTAAHCVETGVKITVVAGEHNIEETEHTEQNRSVIRIIPHHNYNAAINKYNHDIALLELDEPLVLNSYVTPICIADKEYTNIFLKFGSGYVSGWGRVFHKGYSALVLQYLRVPLVDRATCLESTKFTIYNNMFCAGFHEGGRDSCQGDSGGPHVTEVEGTSFLTGIISWGEECAMKGKYGIYTKVSEYVNWIKEKTKLT	µM	0.0673
FIXa Y155F/R318Y/R338E/T343R/R403E (protein) chain 1: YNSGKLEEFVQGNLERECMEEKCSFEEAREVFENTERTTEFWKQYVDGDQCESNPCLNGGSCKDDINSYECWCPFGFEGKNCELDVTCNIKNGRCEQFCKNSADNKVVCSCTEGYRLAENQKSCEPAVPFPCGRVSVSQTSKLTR chain 2: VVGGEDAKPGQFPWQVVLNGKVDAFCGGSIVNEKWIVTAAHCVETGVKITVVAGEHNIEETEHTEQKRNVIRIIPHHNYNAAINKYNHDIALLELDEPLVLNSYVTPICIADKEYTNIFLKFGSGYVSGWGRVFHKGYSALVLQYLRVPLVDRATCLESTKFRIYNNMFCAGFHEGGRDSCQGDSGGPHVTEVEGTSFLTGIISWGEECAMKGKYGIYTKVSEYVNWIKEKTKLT	µM	0.034
FIXa R318Y/R338E/Y345A/R403E/E410N (protein) chain 1: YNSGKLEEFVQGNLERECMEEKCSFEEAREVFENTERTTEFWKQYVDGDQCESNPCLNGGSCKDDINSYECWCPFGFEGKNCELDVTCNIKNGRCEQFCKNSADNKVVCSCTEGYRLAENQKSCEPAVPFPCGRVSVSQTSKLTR chain 2: VVGGEDAKPGQFPWQVVLNGKVDAFCGGSIVNEKWIVTAAHCVETGVKITVVAGEHNIEETEHTEQKRNVIRIIPHHNYNAAINKYNHDIALLELDEPLVLNSYVTPICIADKEYTNIFLKFGSGYVSGWGRVFHKGYSALVLQYLRVPLVDRATCLESTKFTIANNMFCAGFHEGGRDSCQGDSGGPHVTEVEGTSFLTGIISWGEECAMKGKYGIYTKVSEYVNWIKNKTKLT	µM	0.0188
FIXa K247N/N249S/R318Y/R338E/R403E (protein) chain 1: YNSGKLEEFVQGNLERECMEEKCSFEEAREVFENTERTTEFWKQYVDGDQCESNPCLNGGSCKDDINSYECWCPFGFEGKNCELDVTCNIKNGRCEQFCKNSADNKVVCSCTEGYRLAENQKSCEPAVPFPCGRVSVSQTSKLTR chain 2: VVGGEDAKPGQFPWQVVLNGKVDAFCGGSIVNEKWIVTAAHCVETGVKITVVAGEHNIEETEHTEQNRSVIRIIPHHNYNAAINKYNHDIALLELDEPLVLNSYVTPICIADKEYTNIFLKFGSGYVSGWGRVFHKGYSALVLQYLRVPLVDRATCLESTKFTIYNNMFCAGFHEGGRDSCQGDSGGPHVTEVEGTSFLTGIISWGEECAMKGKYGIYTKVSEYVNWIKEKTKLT	µM	0.0536
